The reported measurements were obtained from PubChem BioAssay AID639.

- TARGET_OR_TEST_SYSTEM: Estrogen receptor (Homo sapiens) (UniProt P03372)
- Sequence (P03372 whole entry, looked up, the tested form may be a part): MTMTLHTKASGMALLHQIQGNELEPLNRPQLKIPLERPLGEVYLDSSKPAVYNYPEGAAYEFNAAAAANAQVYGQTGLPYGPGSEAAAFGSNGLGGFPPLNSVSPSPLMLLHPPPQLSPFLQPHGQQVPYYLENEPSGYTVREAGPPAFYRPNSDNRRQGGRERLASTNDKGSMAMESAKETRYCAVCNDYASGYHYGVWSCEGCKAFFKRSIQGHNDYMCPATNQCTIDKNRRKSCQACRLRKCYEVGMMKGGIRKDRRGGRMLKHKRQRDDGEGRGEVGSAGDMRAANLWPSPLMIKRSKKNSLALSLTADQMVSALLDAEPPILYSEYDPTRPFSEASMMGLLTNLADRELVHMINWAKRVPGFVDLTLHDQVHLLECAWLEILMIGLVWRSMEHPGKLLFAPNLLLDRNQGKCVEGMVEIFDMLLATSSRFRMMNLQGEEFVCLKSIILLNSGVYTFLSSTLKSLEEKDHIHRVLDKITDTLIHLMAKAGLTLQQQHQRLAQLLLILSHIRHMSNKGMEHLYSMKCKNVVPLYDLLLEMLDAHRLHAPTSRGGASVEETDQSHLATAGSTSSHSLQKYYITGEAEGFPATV
- RUN_DESCRIPTION: ERα coactivator recruitment potentiators – biochemical, TR-FRET, ERα LBD, low estradiol, primary screen (AID 639);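 also: binding measured in presence of low estradiol as agonist stimulus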
- SETUP_CONDITIONS: TR-FRET ERalpha-LBD/SRC-Cy5 coactivator binding, 2 h; at 25.6 µM; 100 = basal binding, no effect
In all, about 86,000 compounds went through this assay and about 1,200 (1.4%) were called active. Rule as the data show it: active = activity above about 200%; inactive = the rest. The sample as a whole holds a higher share of actives than the screen did.
Valid outcomes are listed here; reply with one: TRUE = active, FALSE = inactive

O=C(Cn1cnc2ccccc2c1=O)NCC1COc2ccccc2O1 (stereo not drawn); FALSE
COC(=O)CSc1nc(C)c2ccc(OC)cc2n1; FALSE
N#C/C(=C1\CCCN1)c1nc(-c2ccccc2)cs1; FALSE
N#CC(=C1SC=CS1)c1nc(-c2ccccc2)cs1; TRUE
Cc1ccc2cc(C#N)c(SCC(=O)NCC3CCCO3)nc2c1C (stereo not drawn); TRUE

q: GET /call?item= O=C(NCCCN1CCCCCC1)C1CC(=O)N(C2CCCC2)C1 (stereo not drawn) returns the recorded outcome of this test.
a: TRUE

q: GET /call?item= "N#CC(=C1CCCC1)c1nc(-c2ccc(Cl)cc2)cs1" returns the recorded outcome of this test.
a: FALSE

q: GET /call?item= CC1Cc2ccccc2N1C(=O)CSc1nc2ccccc2o1 (stereo not drawn) returns the recorded outcome of this test.
a: FALSE

q: GET /call?item= "Fc1ccc(-n2c(Cc3ccccc3)nnc2SCc2nc(-c3ccc(Cl)cc3)no2)cc1" returns the recorded outcome of this test.
a: FALSE

q: GET /call?item= CC1Cc2ccccc2N1C(=O)CSc1nnc(-c2ccc(S(=O)(=O)N3CCCCC3)cc2)o1 (stereo not drawn) returns the recorded outcome of this test.
a: TRUE

q: GET /call?item= "CCOC(=O)c1cnc(SCC(=O)Nc2cccc(OC)c2)nc1N" returns the recorded outcome of this test.
a: FALSE

q: GET /call?item= O=C(NCCc1ccc(Cl)cc1)C1CC(=O)N(C2CCCCC2)C1 (stereo not drawn) returns the recorded outcome of this test.
a: FALSE

q: GET /call?item= "Cc1ccc(C)c(N2C(=O)CS/C2=N\NC(=O)c2ccccc2Cl)c1" returns the recorded outcome of this test.
a: FALSE

q: GET /call?item= "CCN1CCN(Cc2c(O)ccc3c(=O)c(-c4ccc(OC)c(OC)c4)c(C(F)(F)F)oc23)CC1" returns the recorded outcome of this test.
a: FALSE

q: GET /call?item= "CCOC(=O)c1cnc(-n2nc(C)cc2C)nc1-n1nc(C)cc1C" returns the recorded outcome of this test.
a: FALSE

q: GET /call?item= "CCCCc1nc(NCCN)c(C#N)c2c1CSC(C)(C)C2" returns the recorded outcome of this test.
a: FALSE

q: GET /call?item= CCn1c(SCC(=O)NCC2CCCO2)nc2cc(S(=O)(=O)N3CCCCC3)ccc21 (stereo not drawn) returns the recorded outcome of this test.
a: FALSE
